- MEASUREMENT_DESCRIPTION: total protein half-life in vivo (active degradation + dilution); higher = more stable protein
- STATED_CONDITIONS: E. coli NCM3722 delta-clpP; growth: N-lim chemostat; doubling time 6 h
QUANTITY_KIND: total protein half-life in vivo (h)

RESIDUE_CODES	SIGN	MEASURED_VALUE
MTKIIAVTACPSGVAHTYMAAEALESAAKAKGWEVKVETQGSIGLENELTAEDVASADMVILTKDIGIKFEERFAGKTIVRVNISDAVKRADAIMSKIEAHLAQTA	=	5.65
MAAINTKVKKAVIPVAGLGTRMLPATKAIPKEMLPLVDKPLIQYVVNECIAAGITEIVLVTHSSKNSIENHFDTSFELEAMLEKRVKRQLLDEVQSICPPHVTIMQVRQGLAKGLGHAVLCAHPVVGDEPVAVILPDVILDEYESDLSQDNLAEMIRRFDETGHSQIMVEPVADVTAYGVVDCKGVELAPGESVPMVGVVEKPKADVAPSNLAIVGRYVLSADIWPLLAKTPPGAGDEIQLTDAIDMLIEKETVEAYHMKGKSHDCGNKLGYMQAFVEYGIRHNTLGTEFKAWLEEEMGIKK [P0AEP3]	=	4.87
MKRMIALDGAQGEGGGQILRSALSLSMITGQPFTITSIRAGRAKPGLLRQHLTAVKAATEICGATVEGAELGSQRLLFRPGTVRGGDYRFAIGSAGSCTLVLQTVLPALWFADGPSRVEVSGGTDNPSAPPADFIRRVLEPLLAKIGIHQQTTLLRHGFYPAGGGVVATEVSPVASFNTLQLGERGNIVQMRGEVLLAGVPRHVAEREIATLAGSFSLHEQNIHNLPRDQGPGNTVSLEVESENITERFFVVGEKRVSAEVVAAQLVKEVKRYLASTAAVGEYLADQLVLPMALAGAGEFTVAHPSCHLLTNIAVVERFLPVRFSLIETDGVTRVSIE	=	4.65
MARARGRGRRDLKSEINIVPLLDVLLVLLLIFMATAPIITQSVEVDLPDATESQAVSSNDNPPVIVEVSGIGQYTVVVEKDRLERLPPEQVVAEVSSRFKANPKTVFLIGGAKDVPYDEIIKALNLLHSAGVKSVGLMTQPI [P0ABV6]	=	5.42
MTDVLLCVGNSMMGDDGAGPLLAEKCAAAPKGNWVVIDGGSAPENDIVAIRELRPTRLLIVDATDMGLNPGEIRIIDPDDIAEMFMMTTHNMPLNYLIDQLKEDIGEVIFLGIQPDIVGFYYPMTQPIKDAVETVYQRLEGWEGNGGFAQLAVEEE [P0AEV9]	=	4.16
MWYQKTLTLSAKSRGFHLVTDEILNQLADMPRVNIGLLHLLLQHTSASLTLNENCDPTVRHDMERFFLRTVPDNGNYEHDYEGADDMPSHIKSSMLGTSLVLPVHKGRIQTGTWQGIWLGEHRIHGGSRRIIATLQGE [P0AF48]	>	8
MNTPAQLSLPLYLPDDETFASFWPGDNSSLLAALQNVLRQEHSGYIYLWAREGAGRSHLLHAACAELSQRGDAVGYVPLDKRTWFVPEVLDGMEHLSLVCIDNIECIAGDELWEMAIFDLYNRILESGKTRLLITGDRPPRQLNLGLPDLASRLDWGQIYKLQPLSDEDKLQALQLRARLRGFELPEDVGRFLLKRLDREMRTLFMTLDQLDRASITAQRKLTIPFVKEILKL	=	4.95

---

- MEASUREMENT_DESCRIPTION: total protein half-life in vivo (active degradation + dilution); higher = more stable protein
- STATED_CONDITIONS: E. coli NCM3722 delta-smpB; growth: N-lim chemostat; doubling time 6 h
Catalogue of total protein half-life in vivo values
QUANTITY_KIND: total protein half-life in vivo

RESIDUE_CODES	QUANTITY_KIND	MEASURED_VALUE
MQKQAELYRGKAKTVYSTENPDLLVLEFRNDTSAGDGARIEQFDRKGMVNNKFNYFIMSKLAEAGIPTQMERLLSDTECLVKKLDMVPVECVVRNRAAGSLVKRLGIEEGIELNPPLFDLFLKNDAMHDPMVNESYCETFGWVSKENLARMKELTYKANDVLKKLFDDAGLILVDFKLEFGLYKGEVVLGDEFSPDGSRLWDKETLEKMDKDRFRQSLGGLIEAYEAVARRLGVQLD [P0A7D7]	total protein half-life in vivo	4.74 h
MRYIVALTGGIGSGKSTVANAFADLGINVIDADIIARQVVEPGAPALHAIADHFGANMIAADGTLQRRALRERIFANPEEKNWLNALLHPLIQQETQHQIQQATSPYVLWVVPLLVENSLYKKANRVLVVDVSPETQLKRTMQRDDVTREHVEQILAAQATREARLAVADDVIDNNGAPDAIASDVARLHAHYLQLASQFVSQEKP [P0A6I9]	total protein half-life in vivo	4.78 h
MKSRAAVAFAPGKPLEIVEIDVAPPKKGEVLIKVTHTGVCHTDAFTLSGDDPEGVFPVVLGHEGAGVVVEVGEGVTSVKPGDHVIPLYTAECGECEFCRSGKTNLCVAVRETQGKGLMPDGTTRFSYNGQPLYHYMGCSTFSEYTVVAEVSLAKINPEANHEHVCLLGCGVTTGIGAVHNTAKVQPGDSVAVFGLGAIGLAVVQGARQAKAGRIIAIDTNPKKFDLARRFGATDCINPNDYDKPIKDVLLDINKWGIDHTFECIGNVNVMRAALESAHRGWGQSVIIGVAVAGQEISTRPFQLVTGRVWKGSAFGGVKGRSQLPGMVEDAMKGDIDLEPFVTHTMSLDEINDAFDLMHEGKSIRTVIRY	total protein half-life in vivo	4.24 h
MIIIRYLVRETLKSQLAILFILLLIFFCQKLVRILGAAVDGDIPANLVLSLLGLGVPEMAQLILPLSLFLGLLMTLGKLYTESEITVMHACGLSKAVLVKAAMILAVFTAIVAAVNVMWAGPWSSRHQDEVLAEAKANPGMAALAQGQFQQATNGSSVLFIESVDGSDFKDVFLAQIRPKGNARPSVVVADSGHLTQLRDGSQVVTLNQGTRFEGTALLRDFRITDFQDYQAIIGHQAVALDPNDTDQMDMRTLWNTDTDRARAELNWRITLVFTVFMMALMVVPLSVVNPRQGRVLSMLPAMLLYLLFFLIQTSLKSNGGKGKLDPTLWMWTVNLIYLALAIVLNLWDTVPVRRLRASFSRKGAV [P0AF98]	total protein half-life in vivo	6.02 h
MTQYSSLLRGLAAGSAFLFLFAPTAFAAEQTVEAPSVDARAWILMDYASGKVLAEGNADEKLDPASLTKIMTSYVVGQALKADKIKLTDMVTVGKDAWATGNPALRGSSVMFLKPGDQVSVADLNKGVIIQSGNDACIALADYVAGSQESFIGLMNGYAKKLGLTNTTFQTVHGLDAPGQFSTARDMALLGKALIHDVPEEYAIHKEKEFTFNKIRQPNRNRLLWSSNLNVDGMKTGTTAGAGYNLVASATQGDMRLISVVLGAKTDRIRFNESEKLLTWGFRFFETVTPIKPDATFVTQRVWFGDKSEVNLGAGEAGSVTIPRGQLKNLKASYTLTEPQLTAPLKKGQVVGTIDFQLNGKSIEQRPLIVMENVEEGGFFGRVWDFVMMKFHQWFGSWFS	total protein half-life in vivo	6.46 h

---

Catalogue of total protein half-life in vivo values
- MEASUREMENT_DESCRIPTION: total protein half-life in vivo (active degradation + dilution); higher = more stable protein
- STATED_CONDITIONS: E. coli NCM3722 delta-clpP delta-lon delta-hslV; growth: N-lim chemostat; doubling time 6 h
QUANTITY_KIND: total protein half-life in vivo

RESIDUE_CODES	MEASURED_VALUE
MGKHHWKIEKQPEWYVKAVRKTIAALPSGYAEAADWLDVTENALFNRLRADGDQIFPLGWAMVLQRAGGTHFIADAVAQSANGVFVSLPDVEDVDNADINQRLLEVIEQIGSYSKQIRSAIEDGVVEPHEKTAINDELYLSISKLQEHAALVYKIFCISESNDARECAAPGVVASIASGCGETNA	2.93 h
MSRPTIIINDLDAERIDILLEQPAYAGLPIADALNAELDRAQMCSPEEMPHDVVTMNSRVKFRNLSDGEVRVRTLVYPAKMTDSNTQLSVMAPVGAALLGLRVGDSIHWELPGGVATHLEVLELEYQPEAAGDYLL [P0AFW4]	4.22 h
MTTRQHSSFAIVFILGLLAMLMPLSIDMYLPALPVISAQFGVPAGSTQMTLSTYILGFALGQLIYGPMADSFGRKPVVLGGTLVFAAAAVACALANTIDQLIVMRFFHGLAAAAASVVINALMRDIYPKEEFSRMMSFVMLVTTIAPLMAPIVGGWVLVWLSWHYIFWILALAAILASAMIFFLIKETLPPERRQPFHIRTTIGNFAALFRHKRVLSYMLASGFSFAGMFSFLSAGPFVYIEINHVAPENFGYYFALNIVFLFVMTIFNSRFVRRIGALNMFRSGLWIQFIMAAWMVISALLGLGFWSLVVGVAAFVGCVSMVSSNAMAVILDEFPHMAGTASSLAGTFRFGIGAIVGALLSLATFNSAWPMIWSIAFCATSSILFCLYASRPKKR	7.89 h
